Where these numbers come from: the OligoGym collection

TEST_TARGET: UBE2C
PROTOCOL: reporter assay of Huesken 2005
SETTINGS: siRNA
Oligonucleotides are written 5' to 3', each unit as a sugar letter and its base; * is a phosphorothioate linkage, no mark a phosphodiester; rarer units and linkages stand in square brackets, end groups in braces. Plain capitals give the bases only. d = 2'-deoxy (DNA); r = 2'-OH (RNA)
Classification field: enter Fulfilled for normalised inhibition (eCFP-eYFP dual reporter) values not below 80%, Not fulfilled for values below it.

In [3]: df
Out[3]:
                                  substance  class_assignment
0  sense rArGrGrArGrArArCrCrCrArArCrArUrUrGrArUdTdT / antisense rArUrCrArArUrGrUrUrGrGrGrUrUrCrUrCrCrUdAdG         Fulfilled
1  sense rArCrArArUrGrCrGrCrCrCrArCrArGrUrGrArAdTdT / antisense rUrUrCrArCrUrGrUrGrGrGrCrGrCrArUrUrGrUdAdA         Fulfilled
2  sense rGrUrGrGrCrUrArCrCrCrUrUrArCrArArUrGrCdTdT / antisense rGrCrArUrUrGrUrArArGrGrGrUrArGrCrCrArCdTdG         Fulfilled
3  sense rGrArArGrGrArArArArGrUrGrGrUrCrUrGrCrCdTdT / antisense rGrGrCrArGrArCrCrArCrUrUrUrUrCrCrUrUrCdAdG     Not fulfilled
4  sense rUrGrGrCrUrArCrCrCrUrUrArCrArArUrGrCrGdTdT / antisense rCrGrCrArUrUrGrUrArArGrGrGrUrArGrCrCrAdCdT     Not fulfilled
